Numbers sourced from patent US20090221616A1.

# experimental.system: erbB2 in a MCF7 derived cell line (Clone 24 cells) (Homo sapiens, UniProt P04626)
# Construct: to give a cell line that overexpresses full length wild type erbB2 protein; expressed in transfected cells; host or cells: MCF7 (breast carcinoma) derived Clone 24 cells
# Sequence (P04626 23-1255): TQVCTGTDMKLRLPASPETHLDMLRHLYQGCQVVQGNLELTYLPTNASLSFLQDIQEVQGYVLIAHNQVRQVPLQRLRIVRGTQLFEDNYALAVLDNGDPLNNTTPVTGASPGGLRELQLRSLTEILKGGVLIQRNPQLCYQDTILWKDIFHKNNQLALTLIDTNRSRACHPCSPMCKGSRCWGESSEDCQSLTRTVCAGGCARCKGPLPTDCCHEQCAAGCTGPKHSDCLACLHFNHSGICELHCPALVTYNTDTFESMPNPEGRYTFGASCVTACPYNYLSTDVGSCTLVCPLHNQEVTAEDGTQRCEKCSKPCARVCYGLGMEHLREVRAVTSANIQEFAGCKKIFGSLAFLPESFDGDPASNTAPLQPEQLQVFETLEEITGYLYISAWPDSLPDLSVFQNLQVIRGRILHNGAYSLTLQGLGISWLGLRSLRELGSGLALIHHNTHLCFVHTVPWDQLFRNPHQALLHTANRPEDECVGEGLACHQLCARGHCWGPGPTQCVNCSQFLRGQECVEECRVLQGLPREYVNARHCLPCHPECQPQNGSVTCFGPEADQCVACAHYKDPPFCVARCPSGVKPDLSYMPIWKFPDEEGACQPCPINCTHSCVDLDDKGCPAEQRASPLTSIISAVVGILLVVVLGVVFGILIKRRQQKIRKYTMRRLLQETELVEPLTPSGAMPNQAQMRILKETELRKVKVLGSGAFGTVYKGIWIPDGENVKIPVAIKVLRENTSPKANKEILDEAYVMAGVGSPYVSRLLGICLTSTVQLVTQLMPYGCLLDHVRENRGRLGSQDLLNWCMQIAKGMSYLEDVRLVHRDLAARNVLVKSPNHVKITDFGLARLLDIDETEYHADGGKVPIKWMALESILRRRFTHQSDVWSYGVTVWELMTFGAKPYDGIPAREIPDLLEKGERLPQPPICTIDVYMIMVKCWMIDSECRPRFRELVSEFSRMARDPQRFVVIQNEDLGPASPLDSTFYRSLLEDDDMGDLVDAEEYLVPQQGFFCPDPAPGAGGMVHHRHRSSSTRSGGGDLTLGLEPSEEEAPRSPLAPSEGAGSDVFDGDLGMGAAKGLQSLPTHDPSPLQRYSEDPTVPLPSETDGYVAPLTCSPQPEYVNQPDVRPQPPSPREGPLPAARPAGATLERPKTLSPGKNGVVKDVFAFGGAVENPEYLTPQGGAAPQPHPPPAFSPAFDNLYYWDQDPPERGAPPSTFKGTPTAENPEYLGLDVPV
# experiment.notes: Test (c) Clone 24 phospho-erbB2 cell assay
# Assay type: cell-based
# applied.conditions: MCF7 derived Clone 24 cells, 4 hours with compound; read-out: IC50 Test (c): Inhibition of erbB2 tyrosine kinase protein phosphorylation
Below, each of the molecules is paired with its reported pIC50 value.
Reminder that pIC50 means the negative base-10 logarithm of the concentration expressed in mol/L.

CN(CCOc1cccc2ncnc(Nc3ccc4c(cnn4Cc4cscn4)c3)c12)C(=O)CO: 6.23

Quick note, pIC50 for `CN(CCOc1cccc2ncnc(Nc3ccc4c(cnn4Cc4ccccn4)c3)c12)C(=O)CO` landed at 6.38

###

IC50 by entry:
# experimental.system: erbB2 tyrosine kinase (Homo sapiens)
# Construct: Recombinant intracellular fragments of EGFR, erbB2 and erbB4
# Sequence (P04626 676-1255 limits assumed): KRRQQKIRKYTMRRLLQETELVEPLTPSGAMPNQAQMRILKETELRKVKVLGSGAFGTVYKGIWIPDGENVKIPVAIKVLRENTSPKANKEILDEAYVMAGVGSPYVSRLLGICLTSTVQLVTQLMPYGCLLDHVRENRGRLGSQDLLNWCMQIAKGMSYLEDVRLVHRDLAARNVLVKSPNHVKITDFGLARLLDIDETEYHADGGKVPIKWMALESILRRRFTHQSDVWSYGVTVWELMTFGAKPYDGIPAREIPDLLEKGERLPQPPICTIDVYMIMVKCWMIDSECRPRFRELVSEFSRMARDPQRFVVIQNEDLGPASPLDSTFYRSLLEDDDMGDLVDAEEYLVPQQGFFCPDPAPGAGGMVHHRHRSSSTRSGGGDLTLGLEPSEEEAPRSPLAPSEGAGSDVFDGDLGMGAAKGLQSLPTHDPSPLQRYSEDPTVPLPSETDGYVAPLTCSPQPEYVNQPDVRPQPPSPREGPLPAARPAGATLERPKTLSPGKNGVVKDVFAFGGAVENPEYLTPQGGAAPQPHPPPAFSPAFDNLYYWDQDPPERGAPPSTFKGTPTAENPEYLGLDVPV
# experiment.notes: Test (a) protein tyrosine kinase phosphorylation assay, erbB2
# applied.conditions: ATP at Km concentration; read-out: IC50 Test (a): Inhibition of erbB2 tyrosine kinase protein phosphorylation
Numeric answer only, unit nM assumed.

CN(CCOc1cccc2ncnc(Nc3ccc4c(cnn4Cc4cscn4)c3)c12)C(=O)CO: 6

Now consider the entry below.
Given item `CN(CCOc1cccc2ncnc(Nc3ccc4c(cnn4Cc4ccccn4)c3)c12)C(=O)CO` , the value recorded as its IC50 is 8
